Tested on: RPMI-8226 leukemia
Assay: NCI tumour cell line growth inhibition, 48 h; in the data active = GI50 below about 0.43 µM; inactive = the rest
Labels: true = active, false = inactive

- CCOC(=O)c1c(C)nc2c(c1N)CC(=O)N2CCc1ccccc1: true
- C=C(CC(=O)O)C(=O)O (tested in a mixture with another compound): false
- Cc1[nH]c(-c2nc3ccccc3[nH]2)c(C)c1C(=O)NC(C)C1CCCCC1 (stereo not given): false
- COc1cc2ncnc(Nc3ccc4c(cnn4Cc4ccccc4)c3)c2cc1OC: false
- Cc1ccc(C2=C(c3ccc(C)cc3)C3(c4ccc(C)cc4)C4C(=O)c5ccccc5C(=O)C4C2(c2ccc(C)cc2)S3=O)cc1 (stereo not given): false
- CN1CCN(c2nc(NCCCNc3ccnc4cc(Cl)ccc34)c3ccccc3n2)CC1: false
- c1cncc(C2Nc3cccc4cccc(c34)N2)c1: false
- COc1ccc2c(Cl)cc(NC(=O)Nc3c(C)cccc3C)nc2c1: false
- Cc1[nH]nc2c1N=C(c1ccccc1F)c1cc(C(N)=O)ccc1N2: false
- COC(=O)/C=C1/SC(N2N=C(c3cccs3)CC2c2ccc(F)cc2)=NC1=O (stereo not given): false
- C[C@]1(Cn2ccnn2)C(C(=O)O)N2C(=O)CC2S1(=O)=O (stereo not given in full): false
- C=CC/C(=C\COP(=O)(OCc1ccc([N+](=O)[O-])o1)N(C)CCCCCl)CC/C=C(\C)CCC=C(C)C (stereo not given): false
- CCC(=O)Nc1ccccc1C#C/C=C\C#Cc1ccccc1C(F)(F)F: false
- O=[n+]1c2ccccc2n([O-])c2cc(Cl)ccc21: false
- COc1ccc(/C=C2\CN(Cc3cn(CCNc4ccnc5cc(Cl)ccc45)nn3)C/C(=C\c3ccc(OC)c(OC)c3)C2=O)cc1OC: false

----------
Reported TGI is given for each of the following molecules.
System: HT29 colon
Test: NCI tumour cell line growth inhibition, 48 h
property.name: TGI

- N#Cc1nc(-c2ccccn2)oc1N: > 100 µM
- Nc1c(-c2ccccc2[N+](=O)[O-])nc2ccccn12: > 100 µM
- O=C1c2ccccc2CC12Cc1ccccc1C2: 70.5 µM
- CC12CO[C@@](C)(CC(S(=O)(=O)c3ccccc3)C1)O2 (stereo partly specified): > 100 µM
- CCOC(=O)c1oc2ccc([N+](=O)[O-])c3c2c1CCC3: > 100 µM
- O=C1C(=O)c2ccccc2C(O)=C1CCCc1ccc(C2CCCCCC2)cc1: 27.8 µM

----------
Reported TGI is given for each of the following compounds.
System: OVCAR-8 ovarian
Experiment: NCI tumour cell line growth inhibition, 48 h
Where a SMILES comes first, the peptide text is derived from it.
property.name: TGI

* COc1ccc(-c2cc(-c3cc(Cl)cc(Br)c3O)[nH]c(=O)n2)cc1 | 37.2 µM
* CC(C)(C)OC(=O)c1ccc(NCC2=CC(=O)C=CC2=O)cc1 | 26.9 µM
* CCCNC(=O)c1ccc(Cl)cc1Cl | > 100 µM
* Clc1ccc2nc(-c3ccccc3)nc(Cl)c2c1 | > 100 µM
* CCCCNC(=O)Oc1ccc(/C(=C(/C)Cc2ccc(OC)cc2)c2ccc(OCCN3CCCC3)cc2)cc1 | 4.38 µM
* C=CC1(NS(=O)(=O)c2ccc(C)cc2)CCC(C(C)(C)C)CC1 (stereo not drawn) | > 100 µM
* C=C(C)C(O)C(O)C[C@@H](C)C1CC[C@]23C[C@]12CCC1[C@@]2(C)CCC(OC(C)=O)C(C)(C)C2CC(OC2OC(CO)C(O)C(O)C2O)[C@]13C (stereo partly drawn) | 37.1 µM
* Cc1ccc(C2=Nc3c(N)ncnc3NC(c3ccc4c(c3)OCO4)C2)cc1 (stereo not drawn) | > 100 µM
* CCOC(=O)c1c(-c2ccc(Br)cc2)ccn1C | > 10 µM
* O=S1(=O)CCCS(=O)(=O)C(c2ccccc2)=C1c1ccccc1 | > 100 µM
* CCC(C)C1NC(=O)C2CCCN2C(=O)CNC(=O)C(C)NC(=O)C(Cc2ccccc2)NC(=O)C(C(C)C)NC1=O (stereo not drawn) (cyclo(GPIVFA); configuration not given here) | > 100 µM
* Nc1c(N2CCOCC2)c(=O)nc2[nH]/c(=C\c3ccccc3)c(=O)n12 | > 100 µM
* COc1cc(S(=O)(=O)Nc2ccc(-c3csc(N4C(=O)C(Cl)C4c4ccccc4)n3)cc2)ccc1Cl (stereo not drawn) | 39.9 µM
* O=C(CC(=O)N1N=C(N(c2ccccc2)c2ccccc2)CC1c1ccccc1)Nc1ccc(Cl)cc1 (stereo not drawn) | > 100 µM
* O=C1NC(=O)/C(=C/c2ccc(S(=O)(=O)N/N=C\C(O)C(O)C(O)C(O)CO)cc2)N1 (stereo not drawn) | > 100 µM
* COC(=O)C1C=NNC1C(=O)OC (stereo not drawn) | > 100 µM
* [O-][N+]1=NC(c2ccccc2)=C1c1ccccc1 | > 50 µM
* COc1cc(-c2cc(/C=C/C(=O)c3ccc(Cl)c(Cl)c3)[nH]n2)cc(OC)c1OC | 34 µM
* Nc1nc(N)c2c(n1)NC(c1ccccc1)C1CCc3ccccc3C1=N2 (stereo not drawn) | 25.4 µM
* C=C1C(=O)OC2CC(=C)C3CC=C(C)C3CC12 (stereo not drawn) | > 100 µM
* CCOC(=O)c1c(C)nc2c(c1N)CC(=O)N2CCc1ccccc1 | 16.7 µM
* CCCCCCCCCCCCCCCC(=O)OCC1OC(OC)C2NP(=O)(N(CCCl)CCCl)OC1C2O (stereo not drawn) | 13.5 µM
* Oc1cccc2cc(Br)cnc12 | > 100 µM
* CC1=C(Cl)C=CP(=O)(OC(C)C)C1 (stereo not drawn) | > 100 µM
* Nc1nc2ccc(OCC(O)CN3CCCCC3)cc2[n+]([O-])n1 (stereo not drawn) | > 100 µM
* C[n+]1c(-c2ccc(/C=N/NC(=O)c3ccc(C(=O)N/N=C/c4ccc(-c5cn6ccccc6[n+]5C)cc4)cc3)cc2)cn2ccccc21 | 323 µM
* CC1(C)C(=O)/C=C\C(=O)C(C)(C)C(=O)/C=C\C(=O)C(C)(C)C(=O)/C=C\C(=O)C(C)(C)C(=O)/C=C\C1=O | 74.5 µM
* COc1cc2ncnc(Nc3ccc4c(cnn4Cc4ccccc4)c3)c2cc1OC | > 25 µM
* Oc1ccccc1C1=NOC(c2ccc(C(F)(F)F)cc2)C1 (stereo not drawn) | > 50 µM
* CC1C[C@]2(C[C@@H](C)C(=O)O2)O[C@@H]2CC3(C)[C@@H]4CCC5C(C)(C)OC(=O)C[C@H]6OO[C@]4(CC[C@]3(C)C12)CC56O (stereo partly drawn) | > 100 µM
* CCOC(=O)CCC(NC(=O)OCc1ccccc1)C(=O)NC(CCC(=O)OCC)C(=O)NNC(=O)OC(C)(C)C (stereo not drawn) | > 100 µM
* C=C1C2CC(OC(C)=O)C3(C)C(c4ccoc4)OC(=O)[C@@H](O)[C@]13OC1C[C@H](OC(C)=O)C(C)(C)[C@H](CC(=O)OC)[C@]12C (stereo partly drawn) | > 100 µM
* C/C(=N\NC(=S)N1CCCCCCCCCCCC1)c1ccccn1 | 1.9 µM
* CCCCCCCCCCCCOc1ccc(/C=C/C2=[N+](CCCl)CCO2)cc1 | > 100 µM
* O=[n+]1c2ccccc2n([O-])c2cc(Cl)ccc21 | 15.4 µM
* COc1ccc2c(c1)[n+]([O-])c(-c1ccc(C)cc1)c(N)[n+]2[O-] | > 100 µM
* Cc1ccc(C(O)(c2ccc(C)cc2)c2ccccn2)cc1 | > 100 µM
* NC(=O)/C=c1/c2ccccc2n2nc3ccccc3c12 | 27.4 µM
